molecular target: UniProtKB Q9BYT3; test: radiometric filter-binding kinase assay; conditions: compound 0.1 µM
Sequence (Q9BYT3 whole entry, looked up): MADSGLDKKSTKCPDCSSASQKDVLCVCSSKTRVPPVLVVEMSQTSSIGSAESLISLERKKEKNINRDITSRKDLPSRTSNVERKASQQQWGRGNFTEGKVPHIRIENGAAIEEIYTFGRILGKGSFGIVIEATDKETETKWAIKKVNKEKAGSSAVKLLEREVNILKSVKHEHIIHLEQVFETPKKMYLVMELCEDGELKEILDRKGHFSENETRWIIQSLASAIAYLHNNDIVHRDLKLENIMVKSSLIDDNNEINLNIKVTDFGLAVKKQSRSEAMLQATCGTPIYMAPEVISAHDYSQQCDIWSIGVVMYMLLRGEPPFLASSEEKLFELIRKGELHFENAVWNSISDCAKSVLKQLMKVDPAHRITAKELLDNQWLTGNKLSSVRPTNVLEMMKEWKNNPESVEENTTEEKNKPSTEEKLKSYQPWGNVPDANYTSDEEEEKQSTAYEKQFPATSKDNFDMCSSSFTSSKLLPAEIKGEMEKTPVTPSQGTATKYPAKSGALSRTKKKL
propertyLabel: residual activity (%)

Previously resolved entries follow.
Give the measured residual activity of CNC(=O)C1[C@H]2O[C@@](C)([C@@H]1N)n1c3ccccc3c3c4c(c5c6ccccc6n2c5c31)C(=O)NC4 (stereo partly specified) .
27

I would be grateful if you could share the reported residual activity for `O=C(NCCCNc1nc(Nc2cccc(CN3CCOCC3)c2)ncc1C1CC1)C1CCC1` .
80

(1) O=C(Nc1nc2cc(C(F)(F)F)cc(NC3CC3)n2n1)c1cccnc1
(2) COc1ccc(-n2ncc3cnc(Nc4cc(OC)c(OC)c(OCCCN5CCN(C)CC5)c4)nc32)cc1
API: POST /compare with 1 and 2 ; response names the item with higher residual activity. # answer = label of selected item
1
(1: 106%, 2: 30%)

====

target: PIM2 (human) (UniProt Q9P1W9); test: radiometric filter-binding kinase assay; conditions: compound 10.0 µM
Sequence (Q9P1W9 whole entry, looked up): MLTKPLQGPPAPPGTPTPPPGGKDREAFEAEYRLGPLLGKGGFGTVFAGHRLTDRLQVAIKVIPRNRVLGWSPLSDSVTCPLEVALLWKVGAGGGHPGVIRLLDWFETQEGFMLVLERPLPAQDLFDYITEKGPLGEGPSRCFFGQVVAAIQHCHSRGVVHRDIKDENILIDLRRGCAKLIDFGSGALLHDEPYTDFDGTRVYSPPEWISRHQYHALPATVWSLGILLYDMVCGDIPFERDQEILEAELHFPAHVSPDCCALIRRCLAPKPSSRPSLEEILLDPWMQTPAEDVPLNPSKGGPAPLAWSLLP
propertyLabel: residual activity (%)

Worked set:
What measured residual activity is associated with CC1=C(CO)C(=O)O[C@@H]([C@@H](C)[C@H]2CC[C@H]3[C@@H]4C[C@H]5O[C@]56[C@@H](O)C=CC(=O)[C@]6(C)C4CC[C@]23C)C1 (some centres undefined) on PIM2 (human) (UniProt Q9P1W9)?
97

Given the entry `Cc1cccc(Nc2nn(C)c3ncnc(N)c23)c1` , what residual activity was observed with PIM2 (human) (UniProt Q9P1W9)?
113

Request body: readout residual activity, system PIM2 (human) (UniProt Q9P1W9), query `Cc1ccc2c(c1)C(=O)[C@@]1(O)CCN(c3ccccc3)C1=N2` . Return the value.
93

Give residual activity (PIM2 (human) (UniProt Q9P1W9)) of the following compound: `N#Cc1c(C2CCNCC2)cc(-c2c(O)cccc2OCC2CC2)nc1N`
12

Value wanted: residual activity (PIM2 (human) (UniProt Q9P1W9)) of entry `NC(=O)c1cc(-c2ccnc(NC3CCCCC3)c2)nc(N2CCNCC2)c1`
99

(1) NC(=O)Nc1ccc2c(c1)/C(=C/c1cc(-c3cccnc3)c[nH]1)C(=O)N2
(2) COC(=O)/C=C/C(=O)OC
API: POST /compare with 1 and 2 ; response names the item with higher residual activity. Your answer should be the label of the entry you select.
2
(2: 117%, 1: 8%)

====

target: MAP3K11 (human) (UniProt Q16584); test: radiometric filter-binding kinase assay; settings: compound 10.0 µM
Sequence (Q16584 whole entry, looked up): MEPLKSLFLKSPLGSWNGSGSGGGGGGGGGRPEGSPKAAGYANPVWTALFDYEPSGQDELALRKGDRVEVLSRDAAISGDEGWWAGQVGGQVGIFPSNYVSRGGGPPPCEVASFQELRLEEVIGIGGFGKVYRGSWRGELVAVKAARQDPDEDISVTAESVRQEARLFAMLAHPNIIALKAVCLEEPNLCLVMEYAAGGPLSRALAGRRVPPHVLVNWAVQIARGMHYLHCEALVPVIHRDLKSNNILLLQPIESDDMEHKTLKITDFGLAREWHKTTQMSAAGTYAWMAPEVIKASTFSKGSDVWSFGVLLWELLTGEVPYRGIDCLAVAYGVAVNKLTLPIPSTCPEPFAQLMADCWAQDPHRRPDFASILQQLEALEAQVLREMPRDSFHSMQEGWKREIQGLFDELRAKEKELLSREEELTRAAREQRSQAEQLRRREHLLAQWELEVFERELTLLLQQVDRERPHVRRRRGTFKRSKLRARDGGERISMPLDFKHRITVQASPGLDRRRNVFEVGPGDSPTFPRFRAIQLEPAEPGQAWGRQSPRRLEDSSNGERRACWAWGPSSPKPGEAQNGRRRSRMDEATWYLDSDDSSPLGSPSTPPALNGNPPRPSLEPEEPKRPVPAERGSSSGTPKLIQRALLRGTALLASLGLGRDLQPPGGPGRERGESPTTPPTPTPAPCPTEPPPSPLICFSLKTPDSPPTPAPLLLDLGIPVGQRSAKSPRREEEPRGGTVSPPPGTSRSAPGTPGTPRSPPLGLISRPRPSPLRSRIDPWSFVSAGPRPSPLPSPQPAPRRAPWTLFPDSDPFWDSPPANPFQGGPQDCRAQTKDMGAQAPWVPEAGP
propertyLabel: residual activity (%)

Give its residual activity value. Item: `NC(=O)c1cc(-c2ccnc(NC3CCCCC3)c2)nc(N2CCNCC2)c1`
81

Give the measured residual activity of `CNc1nc(-c2ccc3c(N)n[nH]c3c2)cc(N2C[C@@H](C(=O)NC3CCCCC3)CC[C@H]2C)n1` .
44

So what does the record say about residual activity for `NC(=O)c1cc2c(-c3cccc(-c4ccccc4)c3)cnc(N)c2s1` ?
4

Return reported residual activity; argument: `CCCCCc1ccc(/C=C/[C@H](O)[C@@H](CO)NC)cc1`
109

Given `O=C(O)c1ccc(-c2c[nH]c3ncc(-c4ccccc4)cc23)cc1C1CCCC1` , state its recorded residual activity.
5

# input compound: `c1ccc2c(-c3cnn4cc(-c5ccc(N6CCNCC6)cc5)cnc34)ccnc2c1` ; wanted: its residual activity
8

(A) NS(=O)(=O)OC[C@@H]1C[C@@H](n2ccc3c(N[C@H]4CCc5ccccc54)ncnc32)C[C@@H]1O
(B) Cc1nc(-c2ccc(OCC(C)C)c(C#N)c2)sc1C(=O)O
Returns the identifier with the smallest measured residual activity among A and B . Output the label that corresponds to your choice.
B

====

target: MAP2K1 (human) (UniProt Q02750); assay: radiometric filter-binding kinase assay; settings: compound 10.0 µM
Sequence (Q02750 whole entry, looked up): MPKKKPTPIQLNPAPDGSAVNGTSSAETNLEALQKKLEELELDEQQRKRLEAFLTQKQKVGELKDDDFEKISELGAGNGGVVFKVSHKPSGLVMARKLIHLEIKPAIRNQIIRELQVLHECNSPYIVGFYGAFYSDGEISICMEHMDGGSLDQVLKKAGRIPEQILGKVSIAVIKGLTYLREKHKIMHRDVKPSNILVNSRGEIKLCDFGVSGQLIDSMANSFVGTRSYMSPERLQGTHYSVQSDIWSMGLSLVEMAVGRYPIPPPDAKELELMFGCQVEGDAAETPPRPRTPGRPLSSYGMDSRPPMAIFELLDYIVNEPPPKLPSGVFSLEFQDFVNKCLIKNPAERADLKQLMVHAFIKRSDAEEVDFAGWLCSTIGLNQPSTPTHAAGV
propertyLabel: residual activity (%)

Query residual activity on MAP2K1 (human) (UniProt Q02750) for `Oc1ccc(/C=C/c2cc(O)cc(O)c2)cc1`
81

Fill in the recorded residual activity for this compound, with MAP2K1 (human) (UniProt Q02750) as test system: `NC(=O)c1ccc(-c2ccc(Oc3cncc4sc(-c5nn[nH]n5)cc34)cc2)cc1`
78

Provide the documented residual activity with MAP2K1 (human) (UniProt Q02750) as the system for `CCn1c(-c2nonc2N)nc2cncc(CNC3CCNCC3)c21`
78

====

tested on: RPS6KB1 (human), P23443 [T412E]; experiment: radiometric filter-binding kinase assay; settings: compound 10.0 µM
Sequence (P23443 whole entry T412E, looked up): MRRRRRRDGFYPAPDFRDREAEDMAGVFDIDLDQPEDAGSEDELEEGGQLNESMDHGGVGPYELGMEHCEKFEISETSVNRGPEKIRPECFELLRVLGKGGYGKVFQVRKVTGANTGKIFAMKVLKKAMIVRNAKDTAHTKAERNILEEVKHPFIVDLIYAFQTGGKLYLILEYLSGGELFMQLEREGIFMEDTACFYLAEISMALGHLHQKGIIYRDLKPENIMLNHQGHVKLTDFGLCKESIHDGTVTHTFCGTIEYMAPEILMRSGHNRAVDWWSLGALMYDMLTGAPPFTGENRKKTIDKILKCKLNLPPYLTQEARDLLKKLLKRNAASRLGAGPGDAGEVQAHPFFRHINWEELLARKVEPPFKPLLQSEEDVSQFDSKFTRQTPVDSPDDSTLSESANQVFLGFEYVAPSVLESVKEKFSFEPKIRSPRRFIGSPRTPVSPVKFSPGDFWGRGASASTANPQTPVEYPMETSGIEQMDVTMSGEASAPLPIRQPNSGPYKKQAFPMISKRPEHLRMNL
propertyLabel: residual activity (%)

Consider the following illustrative entries.
Look at this compound and give its reported residual activity. `Cn1nc(Nc2ccc(F)cc2)c2c(N)ncnc21`
114

Please report the recorded residual activity for `NC(=O)c1c(NC(=O)C2CC2)sc2c1CCCC2` .
98

Consider the compound `O=c1c(O)c(-c2ccc(O)c(O)c2)oc2cc(O)c(O)c(O)c12` and give its measured residual activity.
14

Which value of residual activity has been reported for `c1ccc2c(-c3cnn4cc(-c5ccc(N6CCNCC6)cc5)cnc34)ccnc2c1` in the records?
84

Value lookup for residual activity; key = `NC(=O)Nc1ccc2c(c1)/C(=C/c1cc(-c3cccnc3)c[nH]1)C(=O)N2`
12

(a) Cc1ccc(=O)n(-c2ccccc2)c1
(b) NCC(=O)Nc1ccc(-n2nc(C(F)(F)F)cc2-c2ccc3c(ccc4ccccc43)c2)cc1
Higher residual activity between a and b ? Field: selected label. Fill in the label of the entry you choose.
a
(a: 111%, b: 21%)

(I) Oc1ccc2ccccc2c1SSc1c(O)ccc2ccccc12
(II) CCNc1nc(Nc2cc(F)c(C(=O)N3CCOCC3)cc2OC)ncc1C(F)(F)F
(III) CC(C)(C#N)c1ccc(N2C(=O)OCc3cnc4ccc(-c5cnc6ccccc6c5)cc4c32)cc1
Could you please order the items by residual activity, going from the lowest number to the highest? Form entry: labels listed in requested order.
I, II, III

(A) O=C(NOCC(O)CO)c1ccc(F)c(F)c1Nc1ccc(I)cc1Cl (stereo unspecified)
(B) CCn1c(-c2nonc2N)nc2cncc(CNC3CCNCC3)c21
For the pair A and B , which member has the lower residual activity number? To answer, give the label that identifies your chosen option.
B

====

target: MAP3K5 (human); experiment: radiometric filter-binding kinase assay; conditions: compound 0.1 µM
propertyLabel: residual activity (%)

Some molecules with recorded residual activity:
Can you share its residual activity? I mean this molecule: `COc1cc(O)c2c(c1)/C=C/C[C@H](O)[C@H](O)C(=O)/C=C\C[C@H](C)OC2=O`
91

# get_value(readout='residual activity', item= `CCCCCc1ccc(/C=C/[C@H](O)[C@@H](CO)NC)cc1` )
115

Quick check: residual activity of `Cc1ccc(Sc2cnc(Nc3cccc(Br)n3)s2)cc1C(=O)N1CCN(C(=O)CN)CC1` ?
106

Please give the measured residual activity for this molecule: `c1ccc2c(-c3cnn4cc(-c5ccc(N6CCNCC6)cc5)cnc34)ccnc2c1`
93

(I) CNC(=O)C1[C@H]2O[C@@](C)([C@@H]1N)n1c3ccccc3c3c4c(c5c6ccccc6n2c5c31)C(=O)NC4 (stereo partly drawn)
(II) O=C(Nc1nc2cc(C(F)(F)F)cc(NC3CC3)n2n1)c1cccnc1
(III) COc1cc(O)c2c(c1)[C@H]1OC1C[C@H](O)[C@H](O)C(=O)/C=C\C[C@H](C)OC2=O (stereo partly drawn)
Order the items by recorded residual activity; the first position goes to the largest value. List the labels, following the order given in the request.
III, II, I
(III: 103%, II: 54%, I: 15%)

====

test system: PRKAA1 or PRKAA2 (rat); experiment: radiometric filter-binding kinase assay; details: compound 1.0 µM; accession and sequence are those of the human protein
propertyLabel: residual activity (%)

(A) C=C1C(=O)OC2C1CC/C(C)=C/CCC1(C)OC21 (stereo unspecified)
(B) NC(=O)Nc1ccc2c(c1)/C(=C/c1cc(-c3cccnc3)c[nH]1)C(=O)N2
(C) c1ccc2c(-c3cnn4cc(-c5ccc(N6CCNCC6)cc5)cnc34)ccnc2c1
(D) COc1ccc2c(c1)c1c3c(c4c5ccccc5n(C)c4c1n2CC(O)CN(C)C)C(=O)NC3=O (stereo unspecified)
Sort ascending by residual activity: all records listed above. Respond with an ordered listing of the labels, as requested.
B, D, C, A

====

molecular target: MAP3K1 (human) (UniProt Q13233); experiment: radiometric filter-binding kinase assay; conditions: compound 1.0 µM
Sequence (Q13233 whole entry, looked up): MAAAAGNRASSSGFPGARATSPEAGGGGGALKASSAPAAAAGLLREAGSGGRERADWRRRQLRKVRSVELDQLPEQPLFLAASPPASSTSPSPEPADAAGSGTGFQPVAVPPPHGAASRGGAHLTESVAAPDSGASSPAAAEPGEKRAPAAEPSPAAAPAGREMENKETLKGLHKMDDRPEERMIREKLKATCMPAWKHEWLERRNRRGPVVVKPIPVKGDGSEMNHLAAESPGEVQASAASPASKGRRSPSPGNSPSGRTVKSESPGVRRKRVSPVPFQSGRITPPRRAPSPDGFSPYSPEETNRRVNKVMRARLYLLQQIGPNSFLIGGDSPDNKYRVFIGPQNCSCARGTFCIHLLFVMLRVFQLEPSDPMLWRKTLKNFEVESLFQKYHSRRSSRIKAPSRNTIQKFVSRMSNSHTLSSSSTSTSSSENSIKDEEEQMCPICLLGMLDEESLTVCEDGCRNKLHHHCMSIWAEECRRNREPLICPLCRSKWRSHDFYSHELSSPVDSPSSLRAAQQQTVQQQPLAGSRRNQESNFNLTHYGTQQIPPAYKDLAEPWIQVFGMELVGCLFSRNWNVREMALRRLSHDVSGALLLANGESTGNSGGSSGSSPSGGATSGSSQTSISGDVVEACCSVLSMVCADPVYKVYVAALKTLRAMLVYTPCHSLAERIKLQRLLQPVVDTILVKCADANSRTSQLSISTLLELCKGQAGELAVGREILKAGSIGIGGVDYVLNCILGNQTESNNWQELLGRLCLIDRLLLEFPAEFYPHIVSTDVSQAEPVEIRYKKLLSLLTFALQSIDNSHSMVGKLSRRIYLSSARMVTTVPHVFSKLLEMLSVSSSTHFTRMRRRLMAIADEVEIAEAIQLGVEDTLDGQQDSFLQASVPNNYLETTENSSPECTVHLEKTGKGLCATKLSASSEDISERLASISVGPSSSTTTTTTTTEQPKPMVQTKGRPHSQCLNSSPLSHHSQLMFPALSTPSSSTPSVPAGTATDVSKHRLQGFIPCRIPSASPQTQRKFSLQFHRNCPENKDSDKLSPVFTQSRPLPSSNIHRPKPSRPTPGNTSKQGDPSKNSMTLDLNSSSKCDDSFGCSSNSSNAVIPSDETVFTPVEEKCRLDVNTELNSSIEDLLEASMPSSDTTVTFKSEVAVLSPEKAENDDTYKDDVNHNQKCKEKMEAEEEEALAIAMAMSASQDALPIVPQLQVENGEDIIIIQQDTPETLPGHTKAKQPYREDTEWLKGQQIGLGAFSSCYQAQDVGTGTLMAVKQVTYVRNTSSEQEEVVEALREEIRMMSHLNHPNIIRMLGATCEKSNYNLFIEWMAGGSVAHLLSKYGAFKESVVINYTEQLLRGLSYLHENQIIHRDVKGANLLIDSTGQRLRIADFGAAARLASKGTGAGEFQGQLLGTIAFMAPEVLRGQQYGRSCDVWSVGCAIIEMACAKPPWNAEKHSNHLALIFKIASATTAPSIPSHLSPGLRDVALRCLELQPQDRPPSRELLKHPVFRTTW
propertyLabel: residual activity (%)

Known results for compounds:
# input compound: COc1cc(O)c2c(c1)[C@H]1OC1C[C@H](O)[C@H](O)C(=O)/C=C\C[C@H](C)OC2=O (some centres not stated) ; wanted: its residual activity
102

Recorded residual activity for `Cc1nc(-c2ccc(OCC(C)C)c(C#N)c2)sc1C(=O)O` , please?
106

// returns reported residual activity for input `Cc1ccc(Sc2cnc(Nc3cccc(Br)n3)s2)cc1C(=O)N1CCN(C(=O)CN)CC1`
35

Could you tell me which residual activity is on file for `Cc1ccc(=O)n(-c2ccccc2)c1` ?
106

Please look up its residual activity: `COc1cc2ncn(-c3cc(OCc4ccccc4S(C)(=O)=O)c(C#N)s3)c2cc1OC`
77

(a) CCNc1nc(Nc2cc(F)c(C(=O)N3CCOCC3)cc2OC)ncc1C(F)(F)F
(b) N#Cc1c(C2CCNCC2)cc(-c2c(O)cccc2OCC2CC2)nc1N
# compare residual activity for a vs b ; return the one with the smaller value To answer, give the label that identifies your chosen option.
b
